B1: LINE1-mini (parent)
chain: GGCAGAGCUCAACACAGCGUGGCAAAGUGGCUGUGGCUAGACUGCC

Variants of: B1
Experiment description: self-cleavage, relative activity (ratio to wild type); higher = more cleavage; in vitro, sequencing; the parent is a self-cleaving ribozyme
Examples of variants with documented self-cleavage follow.
Measured endpoint: self-cleavage

# Macromolecule sequence, Obs value
data = [
    ("GGCUGAGCUCAACUCAGCGUGGCAAAGUGGCUGUGGCUAGACUGCC [A4U A14U]", 0.1),
    ("GGCAGAGCUCAACACAGCGUGGCAAAGUGGCUGUAGCUAGACCGCC [G35A U43C]", 0.07),
    ("GGCAGAGCACAACACAGCGUGGCAAAGUGACUGUGGCUAGACUGCC [U9A G30A]", 0.18),
    ("GGCAGAGCUCAACACAGCGUGGCAAAGGGGCAGUGGCUAGACUGCC [U28G U32A]", 0.05),
    ("GGCAGAGCUCGACACAGCGUGGCAAAAUGGCUGUGGCUAGACUGCC [A11G G27A]", 0.02),
    ("GGCAGAGCUCAACACAGCGUCGCAAAGUGGCUGUGGCUAUACUGCC [G21C G40U]", 0.15),
    ("GGCAGAGCUCAACACAACGGGGCAAAGUGGCUGUGGCUAGACUGCC [G17A U20G]", 0.07),
    ("GGCACAGCUCAACACAGCGUGGCCAAGUGGCUGUGGCUAGACUGCC [G5C A24C]", 0.04),
    ("GGGAGAGCUCAACACAGCGUGGCAACGUGGCUGUGGCUAGACUGCC [C3G A26C]", 0.37),
    ("UGCAGAGCUCAACACAGCGUGUCAAAGUGGCUGUGGCUAGACUGCC [G1U G22U]", 0.43),
    ("GGCAGAGCUAAACACAGCGUGGCAACGUGGCUGUGGCUAGACUGCC [C10A A26C]", 0.04),
    ("GGCAGAGCUCAACACAGCGUGGCAAAUUGGCUGUGGCUAGCCUGCC [G27U A41C]", 0.06),
    ("CGCAGGGCUCAACACAGCGUGGCAAAGUGGCUGUGGCUAGACUGCC [G1C A6G]", 0.02),
    ("GGCAGAGCUCAACAGAGCGUGGCAAAGUGGCUGUGGCCAGACUGCC [C15G U38C]", 0.03),
    ("GGCAGAGCUCAACACAGCGUGGCAAAGUGGCUGUGGCCAGAUUGCC [U38C C42U]", 0.07),
    ("GGCAGAGCUCAACAGAGCGUGGCAAAGUGGGUGUGGCUAGACUGCC [C15G C31G]", 0.03),
    ("GGCAGACCUCAACACAGCGUGGCAAAGUGGCUGUGGCUAGACUGUC [G7C C45U]", 0.16),
    ("GGCAGAGGUCAACACAACGUGGCAAAGUGGCUGUGGCUAGACUGCC [C8G G17A]", 0.08),
    ("GGCAAAGCUCAACACAGCGUGGCAAAGUGGCUGUGGCUACACUGCC [G5A G40C]", 0.04),
    ("GGCAGGGCUCAACACAGCGUGGCAAAGUGGUUGUGGCUAGACUGCC [A6G C31U]", 0.03),
    ("GGCAGAGCUCAACACAGCGUGGCAAAGUGGCUGAGGCUAGCCUGCC [U34A A41C]", 0.03),
    ("CGCAGAGCUCAACACAGCGUGGCACAGUGGCUGUGGCUAGACUGCC [G1C A25C]", 0.1),
]
